- assayTarget: human CLDN18.2 (human)
- assayProcedure: cell-based or functional assay

- binder: "humanized antibody hz28G3-1.3 (antibody, human IgG1, kappa, V domains shown) VH: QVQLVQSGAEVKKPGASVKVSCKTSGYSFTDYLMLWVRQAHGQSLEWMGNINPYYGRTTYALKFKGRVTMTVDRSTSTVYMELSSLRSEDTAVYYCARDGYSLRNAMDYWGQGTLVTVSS VL: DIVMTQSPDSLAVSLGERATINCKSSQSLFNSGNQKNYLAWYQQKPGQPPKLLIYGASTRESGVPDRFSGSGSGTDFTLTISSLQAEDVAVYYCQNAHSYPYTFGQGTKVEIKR"
  CDC EC50, NIH-3T3-CLDN18.2 target cells: "0.31 nM"
